Molecular target: hAR (Homo sapiens)
Sequence (P10275 1-920): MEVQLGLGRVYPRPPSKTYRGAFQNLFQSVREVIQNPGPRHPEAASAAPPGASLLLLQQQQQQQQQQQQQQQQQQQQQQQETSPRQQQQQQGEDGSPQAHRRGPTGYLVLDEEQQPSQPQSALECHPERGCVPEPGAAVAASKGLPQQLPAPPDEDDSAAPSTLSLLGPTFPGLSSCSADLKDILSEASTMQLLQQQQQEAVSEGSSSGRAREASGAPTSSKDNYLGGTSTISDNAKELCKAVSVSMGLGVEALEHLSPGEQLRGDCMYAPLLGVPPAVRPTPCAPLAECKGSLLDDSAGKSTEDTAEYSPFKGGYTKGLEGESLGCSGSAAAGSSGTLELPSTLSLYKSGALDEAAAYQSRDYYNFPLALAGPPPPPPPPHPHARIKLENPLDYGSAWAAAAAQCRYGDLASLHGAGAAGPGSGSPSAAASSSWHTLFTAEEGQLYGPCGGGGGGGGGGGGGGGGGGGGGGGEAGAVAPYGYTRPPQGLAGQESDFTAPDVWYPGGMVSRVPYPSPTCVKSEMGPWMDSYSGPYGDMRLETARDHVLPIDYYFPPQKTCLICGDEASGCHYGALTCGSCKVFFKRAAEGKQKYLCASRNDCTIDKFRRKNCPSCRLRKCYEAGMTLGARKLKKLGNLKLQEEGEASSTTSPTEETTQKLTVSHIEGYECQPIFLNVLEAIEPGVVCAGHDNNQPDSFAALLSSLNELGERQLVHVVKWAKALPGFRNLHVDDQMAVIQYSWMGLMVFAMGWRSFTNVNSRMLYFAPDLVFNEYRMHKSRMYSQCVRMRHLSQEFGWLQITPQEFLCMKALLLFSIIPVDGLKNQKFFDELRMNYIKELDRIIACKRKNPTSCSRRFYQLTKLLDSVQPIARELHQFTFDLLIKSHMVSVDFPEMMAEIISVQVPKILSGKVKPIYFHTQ
Assay: Competitive binding of 3H-DHT to baculovirus/Sf9 generated hAR extracts
Conditions: IC50, concentration at which one half of maximum binding of 1 nM 3H-DHT to hAR is inhibited; one hour at 4° C.; mean of multiple tests
Quick reference: IC50 of the listed items.
measured metric: IC50 (nM)

INSERT INTO results (molecule, assayed_system, measured_metric, reported_value) VALUES
  ('COc1ccccc1CN1CC(C)(C)C(Oc2ccc(C#N)c(C(F)(F)F)c2)C1=O (centres unmarked) [Example 10]', 'hAR (Homo sapiens)', 'IC50', 298),
  ('COc1ccccc1-c1nnc(C(C)N2CC(C)(C)C(Oc3ccc(C#N)c(C(F)(F)F)c3)C2=O)o1 (centres unmarked) [Example 133]', 'hAR (Homo sapiens)', 'IC50', 60),
  ('COc1cccc(CN2CC(C)(C)C(Oc3ccc(C#N)c(C(F)(F)F)c3)C2=O)c1 (centres unmarked) [Example 12]', 'hAR (Homo sapiens)', 'IC50', 111),
  ('CC1(C)CN(S(=O)(=O)C2CC2)C(=O)C1Oc1ccc(C#N)c(C(F)(F)F)c1 (single isomer, unassigned) [Example 100C]', 'hAR (Homo sapiens)', 'IC50', 59),
  ('CC1(C)CN(Cc2ccc(F)cc2)C(=O)C1Oc1ccc(C#N)c(C(F)(F)F)c1 (centres unmarked) [Example 17]', 'hAR (Homo sapiens)', 'IC50', 144),
  ('CC1(C)CN(Cc2ccccc2F)C(=O)C1Oc1ccc(C#N)c(C(F)(F)F)c1 (centres unmarked) [Example 16]', 'hAR (Homo sapiens)', 'IC50', 26),
  ('CCC(CC)CN1CC(C)(C)C(Oc2ccc(C#N)c(C(F)(F)F)c2)C1=O (centres unmarked) [Example 33]', 'hAR (Homo sapiens)', 'IC50', 478),
  ('CC(c1nnc(-c2ccccc2O)o1)N1CC(C)(C)C(Oc2ccc(C#N)c(C(F)(F)F)c2)C1=O (centres unmarked) [Example 130]', 'hAR (Homo sapiens)', 'IC50', 85);
